Target: Calcium and integrin-binding protein 1 (Homo sapiens) (UniProt Q99828)
Sequence (Q99828 whole entry, looked up): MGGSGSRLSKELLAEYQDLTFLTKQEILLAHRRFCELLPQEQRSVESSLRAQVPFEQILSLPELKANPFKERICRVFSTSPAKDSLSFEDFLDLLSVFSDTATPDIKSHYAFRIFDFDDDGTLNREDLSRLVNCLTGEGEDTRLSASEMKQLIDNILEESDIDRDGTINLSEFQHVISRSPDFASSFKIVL
Assay: Primary qHTS for Identification of Calcium Integrin Binding Protein 1 (CIB1) Competitor (AID 1508620);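 also: GST tagged CIB1 binding a fluorescein labelled alphaIIb integrin peptide tracer; top concentration of the series differs between compounds; % is scaled to controls: 0 for no effect and ±100 for the full control effect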
Details: CIB1-GST / FITC-alphaIIb peptide fluorescence polarization; series mostly up to 114 µM
Records with an inconclusive call do not appear. Activity calls are given as the source filed them. Calls follow the shape of the dose curve; as a rule, active = well fitted inhibition curve with a large enough effect; inconclusive = small, poorly fitted or top-dose-only effect; inactive = flat fitted curve, though single readings scatter.
quantity-measured: outcome

[
  {
    "compound": "O=S(=O)(c1ccc2ccccc2c1)N1CCN(S(=O)(=O)c2c(F)cccc2F)CC1",
    "outcome": "inactive"
  },
  {
    "compound": "N#Cc1c(-c2ccc(F)c(Br)c2)no[n+]1[O-]",
    "outcome": "inactive"
  },
  {
    "compound": "O=C1CCCC2=C1C(c1[nH]ncc1Cl)N=C(Nc1nc3c(Br)cccc3o1)N2 (configuration not stated)",
    "outcome": "inactive"
  },
  {
    "compound": "Cc1ccc(OCCn2c(CCNC(=O)c3ccc(C)cc3)nc3ccccc32)cc1",
    "outcome": "inactive"
  },
  {
    "compound": "O=[S+]([O-])(c1ccc2c(c1)OCCO2)N1CCN([S+](=O)([O-])c2c(F)cc(O)cc2F)CC1",
    "outcome": "inactive"
  },
  {
    "compound": "O=C1N/C(=C\\c2ccco2)C(=O)N1Cc1ccc(F)cc1",
    "outcome": "inactive"
  },
  {
    "compound": "Cc1nc(C)c(-c2ccc3ncnc(NCCc4cnc[nH]4)c3c2)s1",
    "outcome": "inactive"
  },
  {
    "compound": "Cc1cc2c(s1)c1cnn(Cc3c(F)cccc3Cl)c(=O)c1n2C",
    "outcome": "inactive"
  },
  {
    "compound": "Cc1ccc(-n2c(=O)ccc(=O)n2CC(=O)NCCc2ccccc2)cc1",
    "outcome": "inactive"
  },
  {
    "compound": "NC(=O)C1CCN(c2nc(-c3ccc4c(c3)CCO4)cs2)CC1",
    "outcome": "inactive"
  }
]

Q. Quick one: outcome of `CCOc1ccc(CCN(C)C(=O)c2cc3sccc3n2Cc2ccccc2)cc1OCC` ?
A. inactive

---

Test system: CP315
Assay: qHTS profiling for inhibitors of Plasmodium falciparum proliferation (AID 504749); also: nearly all actives have a fitted effect of over 60% in size
Conditions: P. falciparum in erythrocytes, SYBR Green DNA, 72 h; series mostly up to 28.7 µM
Inconclusive results are not listed. Calls of active or inactive are those of the source. The call rests on the fitted dose curve; in most records, active means well fitted inhibition curve with a large enough effect; inconclusive means small, poorly fitted or top-dose-only effect; inactive means flat fitted curve, though single readings scatter.
Respond with a class label; see active, inactive

Illustrative cases are given below, each with its answer.
[
  {
    "molecule": "CC(/C=C1\\SC(=S)N(CC(=O)O)C1=O)=C\\c1ccccc1",
    "discrete-label": "inactive"
  },
  {
    "molecule": "C[C@@H]1[C@H](O)[C@@H](C)/C=C/C=C/C=C/C=C/C=C/C=C/C=C/[C@H](O[C@@H]2O[C@H](C)[C@@H](O)[C@H](N)[C@@H]2O)C[C@@H]2O[C@](O)(C[C@@H](O)C[C@@H](O)[C@H](O)CC[C@@H](O)C[C@@H](O)CC(=O)O[C@H]1C)C[C@H](O)[C@H]2C(=O)O",
    "discrete-label": "inactive"
  },
  {
    "molecule": "Oc1ccc(/C=C\\c2cc(O)cc(O)c2)cc1",
    "discrete-label": "inactive"
  },
  {
    "molecule": "COc1cc2c(cc1OC)C(c1ccccc1)CN(C)CC2 (stereo not drawn)",
    "discrete-label": "inactive"
  },
  {
    "molecule": "CN1C(=O)CCC1c1cccnc1 (stereo not drawn)",
    "discrete-label": "inactive"
  },
  {
    "molecule": "C[C@@]12C(=O)OC(=O)[C@]1(C)[C@H]1CC[C@@H]2O1",
    "discrete-label": "active"
  },
  {
    "molecule": "C=C1/C(=C\\C=C2/CCC[C@]3(C)[C@@H]([C@H](C)CCCC(C)(C)O)CC[C@@H]23)C[C@@H](O)C[C@@H]1O",
    "discrete-label": "inactive"
  }
]

Pending molecule:
Q. Each molecule tested received a call. Report the one for `CO[C@H]1/C=C/O[C@@]2(C)Oc3c(C)c(O)c4c(O)c(c(/C=N\N5CCN(C6CCCC6)CC5)c(O)c4c3C2=O)NC(=O)/C(C)=C\C=C\[C@H](C)[C@H](O)[C@@H](C)[C@@H](O)[C@@H](C)[C@H](OC(C)=O)[C@@H]1C` .
A. active

---

Biological target: Cytochrome P450 2C19 (Homo sapiens) (UniProt P33261)
Sequence (P33261 whole entry, looked up): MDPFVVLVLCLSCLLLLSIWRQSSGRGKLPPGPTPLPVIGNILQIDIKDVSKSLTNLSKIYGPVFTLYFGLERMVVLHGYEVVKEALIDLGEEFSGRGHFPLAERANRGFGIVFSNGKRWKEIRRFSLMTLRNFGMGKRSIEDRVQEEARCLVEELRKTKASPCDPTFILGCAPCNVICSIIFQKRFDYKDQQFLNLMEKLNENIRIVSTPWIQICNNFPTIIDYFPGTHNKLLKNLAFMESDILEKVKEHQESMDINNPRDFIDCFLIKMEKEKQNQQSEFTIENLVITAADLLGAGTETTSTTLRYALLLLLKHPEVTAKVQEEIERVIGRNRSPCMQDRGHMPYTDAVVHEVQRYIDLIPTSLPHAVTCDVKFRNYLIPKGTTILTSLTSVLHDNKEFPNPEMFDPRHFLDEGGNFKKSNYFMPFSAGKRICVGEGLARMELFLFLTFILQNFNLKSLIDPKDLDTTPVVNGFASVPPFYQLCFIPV
Experiment: qHTS Assay for Inhibitors and Substrates of Cytochrome P450 2C19 (AID 899); also: nearly all actives have a fitted effect of over 60% in size
Conditions: recombinant CYP2C19, luciferin-H EGE luminescence; series mostly up to 57.1 µM
Inconclusive results are not listed. Active and inactive are the calls of the source. Calls come from the whole dose curve; as a rule, active = well fitted inhibition curve with a large enough effect; inconclusive = small, poorly fitted or top-dose-only effect; inactive = no such curve, though single readings can be large or run the other way.
Permitted responses: true (1) (active), false (0) (inactive)

Solved cases (2 shown):
[
  {
    "smiles-representation": "O=S(=O)(c1ccccc1)N1CCC[C@@]2(CCN(c3ccncc3)C2)C1",
    "target-of-assay": "Cytochrome P450 2C19 (Homo sapiens) (UniProt P33261)",
    "discrete-label": "true (1)"
  },
  {
    "smiles-representation": "Cc1noc(C)c1C(=O)N1CCC2(CC1)CCN(c1cccc(-c3ccccc3)c1)CC2",
    "target-of-assay": "Cytochrome P450 2C19 (Homo sapiens) (UniProt P33261)",
    "discrete-label": "false (0)"
  }
]

Q. Kindly provide the recorded test outcome for the following molecule: `Cc1noc(C)c1-c1cc(NC2CCNCC2)ncn1`
A. false (0)

Q. Lookup `Cc1ccccc1-c1cncnc1Nc1ccc(F)cc1`
A. true (1)

---

Target: Pyruvate kinase (Leishmania mexicana) (UniProt Q27686)
Assay: qHTS Validation Assay for Inhibitors of Leishmania Mexicana Pyruvate Kinase (AID 945);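 also: 0% = DMSO only neutral control wells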
Settings: purified L. mexicana pyruvate kinase, enzyme activity, E451W mutant enzyme; series mostly up to 57.5 µM
Activity calls are given as the source filed them. The call rests on the fitted dose curve; in most records, active means well fitted inhibition curve with a large enough effect; inconclusive means small, poorly fitted or top-dose-only effect; inactive means no such curve, though single readings can be large or run the other way.
quantity-measured: outcome

These recorded examples may help you get a feel for the data.
[
  {
    "smiles-representation": "NCCNC(=O)c1ccc(Cl)cc1",
    "quantity-measured": "outcome",
    "result": "inactive"
  },
  {
    "smiles-representation": "CCCNC[C@H](O)COc1ccccc1C(=O)CCc1ccccc1",
    "quantity-measured": "outcome",
    "result": "inactive"
  },
  {
    "smiles-representation": "OC[C@H]1O[C@@H](n2cnc3c(NCCc4ccccc4)ncnc32)[C@H](O)[C@H]1O",
    "quantity-measured": "outcome",
    "result": "inactive"
  },
  {
    "smiles-representation": "NCCC(=O)NCCc1cnc[nH]1",
    "quantity-measured": "outcome",
    "result": "inactive"
  },
  {
    "smiles-representation": "NC(=NCCC[C@H](N)C(=O)O)NO",
    "quantity-measured": "outcome",
    "result": "inactive"
  }
]

Q. Look up outcome: `CC(C)CN(C)c1nc(N)c(C(=O)N=C(N)N)nc1Cl`
A. inactive

Q. Another compound to look at: `CC(=O)NCCc1ccc(O)c(O)c1`
A. inactive

Q. Next up: `N=C1Sc2ccccc2C2=NCCCN12`
A. inactive

---

// values below are reported max response
Assay: qHTS Assay for Lipid Storage Modulators (AID 1519)
Conditions: Drosophila S3 cells, BODIPY lipid droplet/cell ratio, laser cytometry; measured here: cell count channel max response; cells loaded with oleic acid
Results filed as inconclusive are left out.
Give just the number in %; leave the unit off.

[
  {
    "smiles-representation": "COCCn1c(=O)c(-c2ccc(F)cc2)nc2cnc(OC)nc21",
    "recorded-number": 6.98
  },
  {
    "smiles-representation": "COC(=O)N1CCC2(CCCN(c3ccc(-c4ccccc4)cc3)C2)CC1",
    "recorded-number": 11
  },
  {
    "smiles-representation": "Cn1cccc1C(=O)N1CCC2(CC1)CN(C(=O)Nc1ccccc1)C2",
    "recorded-number": 8.17
  },
  {
    "smiles-representation": "COCCNc1nc(-c2ccccc2OC)nc2ccccc12",
    "recorded-number": 15.3
  },
  {
    "smiles-representation": "FC(F)(F)c1ccccc1-c1nc(NCCN2CCOCC2)c2ccccc2n1",
    "recorded-number": 18.8
  }
]

Let's switch to this molecule now.
Q. Which max response is listed for `CN1CCN(c2cc(-c3ccoc3)ncn2)CC1` ?
A. 23

---

Experiment: qHTS Assay for Lipid Storage Modulators (AID 1519)
Conditions: Drosophila S3 cells, BODIPY lipid droplet/cell ratio, laser cytometry; measured here: cell count channel max response; cells loaded with oleic acid
Inconclusive results are not listed.
quantity-measured: max response (%)
Form entry: value (%) — number only.

// known answers, use as guide
[
  {
    "smiles-representation": "CN(C)c1ncc2ncc(=O)n(C3CC3)c2n1",
    "output-unit": "%",
    "max response": 15.8
  },
  {
    "smiles-representation": "COCC(=O)N1CCC2(CC1)CN(C(=O)Nc1ccc(OC)cc1)C2",
    "output-unit": "%",
    "max response": 23
  },
  {
    "smiles-representation": "COC(=O)N1CCC[C@@]2(CCN(C(=O)Nc3ccccc3)C2)C1",
    "output-unit": "%",
    "max response": -3.53
  },
  {
    "smiles-representation": "O=C(Nc1ccccc1)N1CCCC2(CCN(C(=O)c3ccco3)CC2)C1",
    "output-unit": "%",
    "max response": 12
  },
  {
    "smiles-representation": "CN1CCN(c2ncnc3ccc(-c4ccccc4C#N)cc23)CC1",
    "output-unit": "%",
    "max response": -20.1
  }
]

Q. # max response lookup, item `FC(F)(F)c1ccccc1-c1cc(NCCN2CCOCC2)ncn1`
A. 25.8

Q. Also need `O=c1c(-c2ccc(F)cc2)nc2cnc(N3CCNCC3)nc2n1Cc1ccc(F)cc1` , thanks.
A. 7.95

Q. Subsequent entry: `Cc1nc2cnc(Oc3cccc(Cl)c3)nc2n(CCC#N)c1=O`
A. 19.7

Q. Queued: `O=C(Nc1ccccc1)N1CCC2(CC1)CCN(S(=O)(=O)c1ccccc1)CC2`
A. -0.439

Q. What about `COc1ccc(-n2c(=O)cnc3cnc(Oc4ccccc4)nc32)cc1` ?
A. 3.82

Q. Please answer likewise for `Cc1nc2cnc(N3CCOCC3)nc2n(C2CC2)c1=O`
A. 18

Q. // repeat for `COCC(=O)N1CCC[C@@]2(CCN(Cc3ccccc3OC)C2)C1` and report
A. 0.0589
